biological target: human TREM2/DAP12 fusion protein (human, UniProt O43914 41-113, limits assumed); assay: cell-based or functional assay
Sequence (O43914 other isoform, or with tags, fused parts or gaps limits assumed): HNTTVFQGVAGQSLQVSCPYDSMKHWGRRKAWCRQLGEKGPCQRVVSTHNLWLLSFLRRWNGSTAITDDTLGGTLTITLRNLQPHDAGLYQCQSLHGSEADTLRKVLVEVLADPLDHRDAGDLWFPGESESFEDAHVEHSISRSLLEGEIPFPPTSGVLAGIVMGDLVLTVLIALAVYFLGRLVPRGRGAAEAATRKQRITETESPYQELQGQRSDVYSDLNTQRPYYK
Consider the following binders; for each one, report its BW Luc assay plate bound 7.3 nM IgG, FOC.
Answers are plain numbers, in FOC.

INSERT INTO assay_data (binder, observable, readout_value) VALUES
  ('AL2p-56 (antibody, V domains shown, same VH/VL entries as AL2p-55; Fab and IgG formats under one id) VH: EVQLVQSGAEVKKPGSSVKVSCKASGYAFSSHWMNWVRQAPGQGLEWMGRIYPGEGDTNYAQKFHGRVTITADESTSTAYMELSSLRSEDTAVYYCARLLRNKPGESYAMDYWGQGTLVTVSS VL: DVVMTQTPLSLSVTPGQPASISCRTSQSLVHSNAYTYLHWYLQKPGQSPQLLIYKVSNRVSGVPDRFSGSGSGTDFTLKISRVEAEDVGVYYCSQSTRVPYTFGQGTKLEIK', 'BW Luc assay plate bound 7.3 nM IgG, FOC', 1.51);

Turning to the following binder.
Req: What does the data say about its BW Luc assay plate bound 7.3 nM IgG, FOC? Entry: AL2p-53 (antibody, V domains shown, Fab and IgG formats under one id) VH: EVQLVQSGAEVKKPGSSVKVSCKASGYAFSSHWMNWVRQAPGQGLEWMGRIYPGEGDTNYAQKFHGRVTITADESTSTAYMELSSLRSEDTAVYYCARLLRNQPGESYAMDYWGQGTLVTVSS VL: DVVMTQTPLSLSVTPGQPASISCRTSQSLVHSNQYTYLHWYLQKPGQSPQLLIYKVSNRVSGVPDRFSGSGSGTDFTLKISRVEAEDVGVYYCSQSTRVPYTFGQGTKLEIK
Resp: 1.45
